Experiment: Metabolic stability in rat liver microsomes
Format: in vitro ADME, SD Rat
Conditions: SD rat liver microsomes, NADPH, 37° C.; read-out: Rat microsome (t1/2)
PROPERTY LABEL: half-life (h)
Provide the reading as a plain figure in h.

{"columns": ["MOLECULE", "UNIT STRING", "half-life"],
 "data": [
  ["Cn1cc(-c2cccc(NC(=O)c3cc4oc(N5CCOCC5)nc4nc3N3CCC(O)CC3)n2)cn1 [Compound A4]", "h", 1.53]
]}

Continue with the next molecule.
Ask: May I ask what half-life has been recorded for COC1CCN(c2nc3nc(N4CCOCC4)oc3cc2C(=O)Nc2cccc(-c3cnn(C)c3)n2)CC1 [Compound A24] ?
Result: 1.27

The reported numbers originate from patent US20250074919A1.
